The origin of these recorded values is the supplement of paper PMC12042874.

experiment: amyloid nucleation score (Sup35N fusion, yeast selection) (log enrichment); library NNK3; higher = more nucleation; inactive = no reads after selection;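 also: zero at mode of non-aggregating sequences after 7 days selection at 30°C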
Readout kind: amyloid nucleation score

{"Sequence record": "WSIMSLNFRVDTHYSVHRYV", "Val": 1.95}
{"Sequence record": "KNFSFKATDWIVKSSVARCR", "Val": "inactive"}
{"Sequence record": "KVCVIVVLLHTTRCQKFYQY", "Val": "inactive"}
{"Sequence record": "YNRLIMSSELSMIGTTCISY", "Val": "inactive"}
{"Sequence record": "YISNMLTLSPAKVSHKSWVI", "Val": 0.186}
{"Sequence record": "EFSVLWMLQMDHSTLKFANS", "Val": "inactive"}
{"Sequence record": "SIVDSVQQVSVRWAMYT", "Val": -0.433}
{"Sequence record": "FELVIYQIVRIIVRSLADIS", "Val": "inactive"}
{"Sequence record": "SRDMCAWWVYSGSSQSNECM", "Val": "inactive"}
{"Sequence record": "PKQSIDCCHNWGDGNCFIVV", "Val": "inactive"}
{"Sequence record": "ITRWHGSLHSDYGIGICFSI", "Val": "inactive"}
{"Sequence record": "SESYPTRLSGRKILTRALT", "Val": "inactive"}
{"Sequence record": "ILIGWMILWAICLPKLVDDG", "Val": "inactive"}
{"Sequence record": "FLFVCLSLIALTGADSLVQA", "Val": "inactive"}
{"Sequence record": "DSFVLYALCNYWCSFCIKGA", "Val": 1.8}
{"Sequence record": "LSSIAFCFN", "Val": 1.15}

* * *

Reported amyloid nucleation score values for the following substances.
test: amyloid nucleation score (Sup35N fusion, yeast selection) (log enrichment); library NNK2; higher = more nucleation; inactive = no reads after selection

{"Substance": "WVLPSLKGCTAVSYIFVFLY", "amyloid nucleation score": 0.398}
{"Substance": "YNGLEVAYLF", "amyloid nucleation score": 5.43}
{"Substance": "GYVRRSIGYSLLSVVS", "amyloid nucleation score": -0.121}
{"Substance": "CGFIVKTAWGLVLATLGATY", "amyloid nucleation score": 2.54}
{"Substance": "SCIMLIVPMINSAYAVLLWR", "amyloid nucleation score": -0.771}
{"Substance": "WSWRGS", "amyloid nucleation score": 0.629}
{"Substance": "ASMKGYV", "amyloid nucleation score": 0.148}
{"Substance": "RTPFEDKVSIGDDSRSRADL", "amyloid nucleation score": 0.414}
{"Substance": "CLSSSSVVALGNRLETWIYA", "amyloid nucleation score": 2.73}
{"Substance": "RFNCHFIWNIRPEFRMNNDK", "amyloid nucleation score": 5.61}
{"Substance": "GHCFISEFLGRRVA", "amyloid nucleation score": 2.36}
{"Substance": "LTSMRRCPGVYVGNCGVAGR", "amyloid nucleation score": 1}
{"Substance": "MSSRTHLARRHPVMDVCCSR", "amyloid nucleation score": 6.64}
{"Substance": "LAFFGVLSSFYSRFGIKTKM", "amyloid nucleation score": -1.83}
{"Substance": "CFIENILRFGSW", "amyloid nucleation score": 3.1}
{"Substance": "SVMSRNGNYVIVLGQCNCYM", "amyloid nucleation score": 8.51}
{"Substance": "VHQRYRSVRCWNWIVM", "amyloid nucleation score": -0.545}
{"Substance": "SCKKCMSYVVVVNIVRHICM", "amyloid nucleation score": 1.86}
{"Substance": "SWYLFGPDR", "amyloid nucleation score": -0.433}
{"Substance": "AMDASR", "amyloid nucleation score": 1.7}
{"Substance": "GCCWEKSASRSAETYWSGRA", "amyloid nucleation score": 3.06}
{"Substance": "VDYKSFRNYTFMDHYCSPYN", "amyloid nucleation score": 1.08}
{"Substance": "EGSNNVVVRDSAVYQVSGEM", "amyloid nucleation score": -0.375}
{"Substance": "PSRPCGLRELAYADSAKQLW", "amyloid nucleation score": 1.15}
{"Substance": "FIERILAVSCFAYFVKPSTV", "amyloid nucleation score": 5.44}
{"Substance": "RTLWATNVRLKNLHVFIMVM", "amyloid nucleation score": 0.147}
{"Substance": "WQTEFIYSQVSTVGYKRLEG", "amyloid nucleation score": 2.38}
{"Substance": "VMCFNAVSLTFVFRDMTSYY", "amyloid nucleation score": 8.8}
{"Substance": "VSRFDA", "amyloid nucleation score": 0.306}
{"Substance": "SAPYLIMLRLDSCACGDVF", "amyloid nucleation score": 2.01}
{"Substance": "FASFVSIGRVVLLYSPSCYQ", "amyloid nucleation score": 5.71}
{"Substance": "SSCLIG", "amyloid nucleation score": 0.28}
